Data provenance: PubChem BioAssay (NCI)

Provide the reported growth inhibition of each item.
Protocol summary: NCI Yeast Anticancer Drug Screen. Data for the cln2 rad14 strain (AID 165);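 also: 0% = growth equal to vehicle treated cultures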
Reported conditions: S. cerevisiae cln2 rad14 strain, at 5.0 µM (retest, dose inferred, filed as 0.5), stronger effect = higher value
The panel holds about 79,000 compounds, 15% with a hit somewhere; the sample as a whole holds those more often.
Numbers only, in %.

Examples from the recorded data:
N#CSCCl ... 1
COc1ccc(C(=O)Nc2ccccc2OC)cc1 ... 6
O=C1c2ccccc2-c2nc3ncccc3cc21 ... 6

Go through the items and report each one's growth inhibition.
1. O=C(O)Cc1cc(I)c(Oc2ccc(O)c(I)c2)c(I)c1
2. CCCOC1(C)CC(c2cc(OC)c(OC)c(OC)c2)c2cc3c(cc2O1)OCO3 (stereo not drawn)
3. O=C(CCc1ccccc1)COC(=O)c1ccc([N+](=O)[O-])cc1
4. CCCCCCCCCCCCNCC(=O)O
5. NC(=S)Nc1cccc(C(F)(F)F)c1
6. COC(=O)c1ccc(C)cc1C1CN=NC12Cc1cccc(C)c1C2=O (stereo not drawn)

Resp:
1: 29; 2: 4; 3: -26; 4: 1; 5: -45; 6: 5
